- testSystem: AChE (Homo sapiens, UniProt P22303)
- Sequence (P22303 32-614): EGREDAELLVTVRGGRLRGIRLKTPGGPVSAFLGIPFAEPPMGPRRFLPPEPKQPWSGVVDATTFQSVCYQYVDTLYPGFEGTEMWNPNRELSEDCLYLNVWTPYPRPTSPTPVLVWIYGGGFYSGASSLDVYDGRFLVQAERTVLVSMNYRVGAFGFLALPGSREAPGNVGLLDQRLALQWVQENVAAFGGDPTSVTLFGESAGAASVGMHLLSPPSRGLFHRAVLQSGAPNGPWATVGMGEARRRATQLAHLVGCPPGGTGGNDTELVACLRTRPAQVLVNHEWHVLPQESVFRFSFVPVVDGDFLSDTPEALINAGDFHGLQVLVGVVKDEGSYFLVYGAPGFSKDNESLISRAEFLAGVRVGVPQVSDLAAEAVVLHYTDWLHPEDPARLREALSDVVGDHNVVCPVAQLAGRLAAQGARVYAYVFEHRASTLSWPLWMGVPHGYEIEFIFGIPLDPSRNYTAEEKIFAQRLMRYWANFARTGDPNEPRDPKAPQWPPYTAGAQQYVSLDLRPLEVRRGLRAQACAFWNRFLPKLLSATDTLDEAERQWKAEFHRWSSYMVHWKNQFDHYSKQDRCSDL
pIC50: −log10 of the molar value.
# if value of pIC50 reaches 4, tag Y; if it stays below, tag N

Req: Does Cn1c(=O)c2c(ncn2Cc2nnn(CCCCC(=O)Nc3ccc(I)cc3F)n2)n(C)c1=O have a reported pIC50 of at least 4?
Resp: Y

Req: Kindly determine if pIC50 recorded for COc1ccc(OC(=O)CCCCn2nnc(Cn3cnc4c3c(=O)n(C)c(=O)n4C)n2)cc1 is above or exactly 4.
Resp: N

Req: Does Cn1c(=O)c2c(ncn2Cc2nnnn2CCCCCCC(=O)Nc2ccc(Br)cc2)n(C)c1=O have a reported pIC50 of at least 4?
Resp: Y

Req: State whether the measured pIC50 reaches 4, counting equality as reaching it, for Cn1c(=O)c2c(ncn2Cc2nnnn2CCCCCCC(=O)Nc2ccc(F)c(Cl)c2)n(C)c1=O
Resp: Y

Req: Evaluate Cn1c(=O)c2c(ncn2Cc2nnn(CCCCCC(=O)Nc3cccc(Cl)c3)n2)n(C)c1=O : pIC50 at minimum 4?
Resp: N
